Values were extracted from the supplement of paper PMC10567573.

B1: RIPK4 (parent)
chain: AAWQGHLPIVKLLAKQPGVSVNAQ

- Variants of: B1
- Method summary: protein stability index of a GFP-peptide fusion (GPS, HEK-293T) (PSI 1-6); higher = more stable;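 note: lentivirally expressed fusions sorted by FACS into six bins by GFP to DsRed ratio, PSI derived from sequencing read proportions per bin multiplied by bin number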
- Applied conditions: c terminus: a fixed tail appended
Form field: protein stability index (one value per entry).
Measurement type: protein stability index

| Sequence code | Value observed |
| --- | --- |
| AAWQGHLPIVKLLAKQPGVSVNQQ | 3.54 |
| AAWQMHLPIVKLLAKQPGVSVNAQ | 2.37 |
| MAWQGHLPIVKLLAKQPGVSVNAQ | 1.98 |
| AAWQGHLPIVKLLAKQPGYSVNAQ | 1.75 |
| AAWQWHLPIVKLLAKQPGVSVNAQ | 1.71 |
| AAWQGHLPIVKLLAKQPGCSVNAQ | 2.66 |
| AAWQGHLPIVKLLAKQPGVSVNAF | 2.07 |
| AAWQGHLPIVKYLAKQPGVSVNAQ | 3.14 |
| AANQGHLPIVKLLAKQPGVSVNAQ | 3.29 |
| AAWQGHLPIVQLLAKQPGVSVNAQ | 2.35 |
| AAWQGHLPICKLLAKQPGVSVNAQ | 2.38 |
| AAWQGHLPIVKLLAKQPGVSVNAE | 3.17 |
| AAWQGHLPIVKLYAKQPGVSVNAQ | 2.94 |
| AAWQGHLPIVPLLAKQPGVSVNAQ | 3.07 |
| SAWQGHLPIVKLLAKQPGVSVNAQ | 2.56 |
| AAWQGHLPIVKLLAKQPGVSVNAR | 3.16 |
| AAWQGHLDIVKLLAKQPGVSVNAQ | 2.25 |
| AAWQGHLPIVKLLAKQPGFSVNAQ | 1.7 |
| AAWQTHLPIVKLLAKQPGVSVNAQ | 2.69 |
| AAWQGHLPIVKLWAKQPGVSVNAQ | 3.24 |
| AMWQGHLPIVKLLAKQPGVSVNAQ | 2.73 |
| AAWQGHLPIVKLLAKQTGVSVNAQ | 1.83 |
